Values from patent EP4567031A1

system: human Pan T cells; assay: Human Pan T cell IL-2 ELISA; format: cell-based; conditions: Homo sapiens, T-cell, 48 h, Anti-CD3 and Anti-CD28, supernatant IL-2 ELISA, read-out: IL-2 release, EC50
pEC50: −log10 of the molar value.
Each entry gets label 0 if its pEC50 stays under 8, and label 1 if its pEC50 is 8 or above.

Example results:
# Compound, Category
rows = [
    ("Cc1nccn2c(-c3cc4c(c5c3CNC5=O)Nc3ccc(N5CCOCC5)cc3C4(C)C)cnc12 [Example 173]", "label 1"),
    ("COC1CCCn2c(-c3cc4c(c5c3CNC5=O)Nc3c(F)cc(N5CCOCC5)cc3C4(C)C)cnc21 (single isomer, unassigned) [Example 178]", "label 0"),
]

Form field: pEC50 at least 8? Entry: COC1CCCn2c(-c3cc4c(c5c3CNC5=O)Nc3cc(C)c(N5CCOCC5)cc3C4(C)C)cnc21 (single isomer, unassigned) [Example 150]
label 0

Evaluate CC1(C)c2cc(N3CCOC(C(C)(C)O)C3)ccc2Nc2c1cc(-c1cncc3c1OCCN3)c1c2C(=O)NC1 (stereo not shown) [Example 111] : pEC50 at minimum 8?
label 0

In plain terms: is recorded pEC50 at least 8 for COc1nccn2c(-c3cc4c(c5c3CNC5=O)Nc3ccc(N5CCOCC5=O)cc3C4(C)C)cnc12 [Example 238] ?
label 0
